What melting point was measured for each of the following?
Could you give me the number in °C? Just the number is fine.

Look up melting point for this compound: CCSc1nnc(NC(=O)C(C(F)(F)F)C(F)(F)F)s1
159

CCOc1ccccc1C(C)=O , same question.
40

N#CCc1c(Cl)cccc1Cl , same question.
76

CC(C)(C)c1cc(O)c(O)c(O)c1 , same question.
135

N#Cc1c(-c2cccc(O)c2)c(C#N)c(=O)n(N)c1N , same question.
323

CC(=O)NC(=Cc1ccccc1)C(=O)O , same question.
192

CC(=O)CCCCC(C)=O , same question.
44

CS(=O)(=O)CCCN=C=S , same question.
47.5

NCC(O)C(O)C(O)C(O)CO (centres undefined) , same question.
127

Nc1ccc(N=Nc2ccccc2)cc1 , same question.
127

CCOP(=S)(OCC)SCCSCC , same question.
-25

CSc1cc(-c2ccc3ccccc3c2)c2c(=O)n(-c3ccccc3)n(C)c2c1 , same question.
179

COc1ccc(/C=C2\CN(S(=O)(=O)c3ccc(C)cc3)c3ccccc3N2S(=O)(=O)c2ccc(C)cc2)cc1 , same question.
152

Cc1ccc(Br)nc1 , same question.
43

COc1cc(C)c(C(O)C#N)cc1OC (centres undefined) , same question.
80

Cn1c(=O)c(C2=NNC(=O)C2=Cc2c[nH]c3ccccc23)c(O)c2ccccc21 , same question.
297

Cc1ccc2ccccc2c1[N+](=O)[O-] , same question.
81.5

CC1(C)C(C(=O)OC(C#N)c2cccc(Oc3ccccc3)c2)C1(C)C (centres undefined) , same question.
47.5

CO[C@]12C(=O)CCc3cccc(c31)Oc1ccc3ccccc3c12 , same question.
154

Cc1ncccn1 , same question.
-4

CC1CCC(C)S1 (centres undefined) , same question.
-89

COC(=O)C1=C(C(=O)OC)C2(CCl)c3ccccc3C1c1ccccc12 , same question.
169

CC(C)(C)C(=O)C(Oc1ccc(Cl)cc1)n1cncn1 (centres undefined) , same question.
82.3

COCCOC1=C(N2CC2)C(=O)C(OCCOC)=C(N2CC2)C1=O , same question.
80

CCCCCCCCCCCCCCCC1CCCCC1 , same question.
29

COc1cc(C(=O)OCCCN(C)CCN(C)CCCOC(=O)c2cc(OC)c(OC)c(OC)c2)cc(OC)c1OC , same question.
76

O=C(OCc1ccccc1)c1ccc(O)cc1 , same question.
112

CCCCC/C=C\Br , same question.
-98
